Ref: paper PMC10059057

assay_details: In vitro cytotoxicity assay (resazurin) on Raw 264.7 macrophage cells
Format: cell-based, murine
measurement_context: mouse; Raw 264.7 macrophages, positive control, unit µM; read-out: Cytotoxicity Raw Cells CC50 ± SD
assay_endpoint: CC50 at 48 h (µM)
Numeric only. Scale: µM

Query string: What measured CC50 at 48 h goes with COc1cc([C@@H]2c3cc4c(cc3[C@H](O)[C@H]3COC(=O)[C@H]23)OCO4)cc(OC)c1OC [Podophyllotoxin, reference compound] ?
Result string: 0.71

* * *

assay_details: In vitro cytotoxicity assay (resazurin) on Raw 264.7 macrophage cells
Format: cell-based, murine
measurement_context: mouse
assay_endpoint: CC50 at 48 h

Query string: What measured CC50 at 48 h goes with O=c1ccc2cc(O)c(O)cc2o1 [Esculetin (2), 6,7-dihydroxycoumarin] ?
Result string: > 500 µg/mL

Query string: What do you have for CCCCCCCC=CCCCCCCCCCCCCCC(O)C(O)C(COC1OC(CO)C(O)C(O)C1O)NC(=O)C(O)CCCCCCCCCCCCCC (stereo not shown) [Antroklaicerebroside (1)] ?
Result string: > 500 µg/mL

Query string: What do you have for COc1cc2ccc(=O)oc2cc1O [Scopoletin (3), 7-hydroxy-6-methoxycoumarin] ?
Result string: > 500 µg/mL

Query string: What do you have for COc1c(O)cc2c(=O)oc3c(OC)c(O)cc4c(=O)oc1c2c34 [3,3′-Dimethylellagic acid (4), 3,3′-dimethylellagic acid] ?
Result string: > 500 µg/mL

* * *

Please provide measured IC50 for the entries that follow.
System: P. falciparum chloroquine-resistant (PfDd2)
assay_details: Antiplasmodial SYBR green I based fluorescence assay, chloroquine-resistant strain
Format: cell-based
measurement_context: Plasmodium falciparum; chloroquine-resistant strain Dd2, 72 h; read-out: PfDd2 IC50 ± SD
Source text: The cryopreserved chloroquine-sensitive (Pf3D7-(MRA-102)), the multi-resistant (PfDd2) of Plasmodium falciparum, and the promastigote form of Leishmania donovani strains were obtained from BEI Resources (https://www.beiresources.org/ (accessed on 16 February 2019)) and are routinely cultured at the Antimicrobial and Biocontrol Agents Unit, University of Yaoundé I. […]

Query string: What measured IC50 goes with COc1c(O)cc2c(=O)oc3c(OC)c(O)cc4c(=O)oc1c2c34 [3,3′-Dimethylellagic acid (4), 3,3′-dimethylellagic acid] ?
Result string: > 50 µg/mL

Query string: What do you have for COc1cc2ccc(=O)oc2cc1O [Scopoletin (3), 7-hydroxy-6-methoxycoumarin] ?
Result string: > 50 µg/mL

Query string: What do you have for CCCCCCCC=CCCCCCCCCCCCCCC(O)C(O)C(COC1OC(CO)C(O)C(O)C1O)NC(=O)C(O)CCCCCCCCCCCCCC (stereo not shown) [Antroklaicerebroside (1)] ?
Result string: > 50 µg/mL

Query string: What do you have for O=c1ccc2cc(O)c(O)cc2o1 [Esculetin (2), 6,7-dihydroxycoumarin] ?
Result string: 9.3 µg/mL

* * *

Please provide measured CC50 at 48 h for the entries that follow.
assay_details: In vitro cytotoxicity assay (resazurin) on Raw 264.7 macrophage cells
Format: cell-based, murine
measurement_context: mouse; Raw 264.7 macrophages, 48 h treatment, resazurin; read-out: Cytotoxicity Raw Cells CC50 ± SD
Experimental: RAW 264.7 cells were obtained from RIKEN BioResource Centre Cell Bank (Tsukuba, Japan) and cultured in Dulbecco’s modified Eagle medium (DMEM) containing 1% penicillin–streptomycin and 10% FBS under 5% CO2 and humidified atmosphere at 37 °C and sub-cultured every 72 h. A stock solution was prepared at 100 mg/mL for each extract and fraction and at 50 mg/mL for isolated compound in 100% DMSO (Sigma–Aldrich, Munich, Germany). […]

Query string: What measured CC50 at 48 h goes with CC[C@H](/C=C/[C@@H](C)[C@H]1CC[C@H]2[C@@H]3CC=C4C[C@@H](O)CC[C@]4(C)[C@H]3CC[C@]12C)C(C)C [Stigmasterol (6), stigmasterol] ?
Result string: > 500 µg/mL

Query string: What do you have for CC[C@H](CC[C@@H](C)[C@H]1CC[C@H]2[C@@H]3CC=C4C[C@@H](O)CC[C@]4(C)[C@H]3CC[C@]12C)C(C)C [β-sitosterol (5), β-sitosterol] ?
Result string: > 500 µg/mL
